Molecular target: Y641N EZH2 (Homo sapiens, UniProt Q15910, Y641N)
Sequence (Q15910 whole entry Y641N): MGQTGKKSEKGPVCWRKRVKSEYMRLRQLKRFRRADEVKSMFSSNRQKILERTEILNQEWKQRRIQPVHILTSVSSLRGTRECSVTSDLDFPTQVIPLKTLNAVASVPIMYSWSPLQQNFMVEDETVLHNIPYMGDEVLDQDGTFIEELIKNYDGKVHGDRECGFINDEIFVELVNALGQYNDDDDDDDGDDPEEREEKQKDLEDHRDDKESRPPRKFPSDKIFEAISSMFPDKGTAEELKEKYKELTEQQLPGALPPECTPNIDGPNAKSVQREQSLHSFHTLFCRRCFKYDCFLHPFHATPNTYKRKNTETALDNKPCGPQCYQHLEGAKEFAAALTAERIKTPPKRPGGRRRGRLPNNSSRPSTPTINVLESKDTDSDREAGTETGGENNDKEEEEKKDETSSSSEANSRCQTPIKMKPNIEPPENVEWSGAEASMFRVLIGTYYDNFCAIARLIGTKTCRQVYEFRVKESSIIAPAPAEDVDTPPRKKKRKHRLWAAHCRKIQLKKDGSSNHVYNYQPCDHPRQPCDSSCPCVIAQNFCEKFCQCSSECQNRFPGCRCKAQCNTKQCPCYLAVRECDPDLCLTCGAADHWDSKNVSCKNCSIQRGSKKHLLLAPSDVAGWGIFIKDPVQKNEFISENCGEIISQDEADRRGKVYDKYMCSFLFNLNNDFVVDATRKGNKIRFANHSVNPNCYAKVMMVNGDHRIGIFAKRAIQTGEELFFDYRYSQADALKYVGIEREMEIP
Sequence (O75530 whole entry partner): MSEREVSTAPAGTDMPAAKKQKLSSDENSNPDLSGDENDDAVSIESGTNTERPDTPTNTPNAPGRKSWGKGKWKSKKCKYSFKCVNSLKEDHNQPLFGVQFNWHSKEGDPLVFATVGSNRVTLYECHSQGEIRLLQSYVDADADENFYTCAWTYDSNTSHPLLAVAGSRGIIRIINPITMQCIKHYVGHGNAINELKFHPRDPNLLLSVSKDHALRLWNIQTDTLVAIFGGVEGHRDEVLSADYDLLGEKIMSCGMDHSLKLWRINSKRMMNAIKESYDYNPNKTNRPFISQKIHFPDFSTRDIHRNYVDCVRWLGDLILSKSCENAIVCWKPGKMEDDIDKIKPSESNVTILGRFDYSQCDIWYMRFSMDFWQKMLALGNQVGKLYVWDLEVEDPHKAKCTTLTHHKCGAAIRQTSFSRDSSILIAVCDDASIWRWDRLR
Sequence (Q15022 whole entry partner): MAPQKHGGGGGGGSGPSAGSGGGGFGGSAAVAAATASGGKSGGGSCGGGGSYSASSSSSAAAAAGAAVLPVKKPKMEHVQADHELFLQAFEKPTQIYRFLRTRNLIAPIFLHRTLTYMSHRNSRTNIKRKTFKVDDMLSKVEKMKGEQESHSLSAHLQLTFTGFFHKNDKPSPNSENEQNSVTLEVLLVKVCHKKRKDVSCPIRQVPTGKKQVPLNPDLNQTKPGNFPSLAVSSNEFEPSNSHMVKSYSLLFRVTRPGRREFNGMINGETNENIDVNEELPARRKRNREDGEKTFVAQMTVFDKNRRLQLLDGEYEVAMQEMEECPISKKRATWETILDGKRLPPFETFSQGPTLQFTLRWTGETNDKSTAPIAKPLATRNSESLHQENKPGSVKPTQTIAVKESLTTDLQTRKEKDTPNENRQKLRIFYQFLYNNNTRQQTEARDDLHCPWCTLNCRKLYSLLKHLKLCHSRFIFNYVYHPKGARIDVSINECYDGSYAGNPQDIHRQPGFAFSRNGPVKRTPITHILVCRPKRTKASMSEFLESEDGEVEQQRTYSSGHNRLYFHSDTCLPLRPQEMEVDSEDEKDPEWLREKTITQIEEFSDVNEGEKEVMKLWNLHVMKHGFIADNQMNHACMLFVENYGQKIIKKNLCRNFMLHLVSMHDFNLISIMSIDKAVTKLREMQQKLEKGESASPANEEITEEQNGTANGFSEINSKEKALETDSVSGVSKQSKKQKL
Test: Y641N EZH2 assay: performed as the EZH2 assay, using reconstituted H3K27Me2 oligonucleosomes as substrate
pIC50: −log10 of the molar value.
This listing pairs compounds with measured pIC50.

A selection of reference data follows.
1. CC1(C)CC(NC(=O)c2ccc(Oc3cccc4cnccc34)cc2)CC(C)(C)N1 | 4.10 to 4.70
2. CC1(C)CC(NC(=O)c2ccc(Oc3cccc(N4CCCC4)c3)c(Cl)c2)CC(C)(C)N1 | 4.10 to 4.70
3. CC1(C)CC(NC(=O)c2ccc(Oc3cccc(-c4cnccn4)c3C#N)c(Cl)c2)CC(C)(C)N1 | 4.70 to 5.30
4. CC1(C)CC(NC(=O)c2ccc(COc3cccc(-c4ccc5[nH]ccc5c4)c3)cc2)CC(C)(C)N1 | 4.10 to 4.70
5. COc1cccc(Oc2ccc(C(=O)NC3CC(C)(C)NC(C)(C)C3)cc2Cl)c1C#N | 4.70 to 5.30

Param item = CC1(C)CC(NC(=O)c2ccc(Oc3ccccc3C#N)c(F)c2)CC(C)(C)N1 ; retrieve measured pIC50.
4.10 to 4.70

Param item = CC1(C)CC(NC(=O)c2ccc(-n3ncc4ccccc43)c(Cl)c2)CC(C)(C)N1 ; retrieve measured pIC50.
4.70 to 5.30

Param item = CC1(C)CC(NC(=O)c2ccc(C#Cc3ccccc3)cc2)CC(C)(C)N1 ; retrieve measured pIC50.
4.70 to 5.30

---

This listing pairs molecules with measured pIC50.
Target: UniProt Q15910
Assay: EZH2 assay: rPRC2 with biotinylated oligonucleosome substrates and 3H SAM, FlashPlate scintillation counting, IC50
Type: biochemical
Conditions: rPRC2, biotinylated oligonucleosome substrates, 3H SAM; read-out: EZH2 IC50
Description: Assays were carried out by mixing rPRC2 together with biotinylated oligonucleosome substrates in the presence of the radio-labeled enzyme co-factor, S-adenosyl-L-methionine (^3H SAM) (Perkin Elmer) and monitoring the enzymatically mediated transfer of tritiated methyl groups from ^3H SAM to histone lysine residues. […]
pIC50: −log10 of the molar value.

Param item = CC1(C)CC(NC(=O)c2ccc(Oc3cccc(I)c3C#N)c(Cl)c2)CC(C)(C)N1 [Compound I-257] ; retrieve measured pIC50.
> 5.30

Param item = CC1(C)CC(NC(=O)c2ccc(OCc3ccccc3F)cc2)CC(C)(C)N1 [Compound I-90] ; retrieve measured pIC50.
< 4.10

Param item = N#Cc1c(Oc2ccc(C(=O)NC3CCNCC3C#N)cc2Cl)cccc1-c1ccnnc1 (stereo not shown) [Compound I-329] ; retrieve measured pIC50.
< 4.10

Param item = CC1(C)CC(NC(=O)c2ccc(Oc3cccc(-c4cccnc4N)c3C#N)c(Cl)c2)CC(C)(C)N1 [Compound I-361] ; retrieve measured pIC50.
4.70 to 5.30

Param item = CC1(C)CC(NC(=O)c2ccc3ccccc3c2)CC(C)(C)N1 [Compound I-137] ; retrieve measured pIC50.
< 4.10

Param item = CC1(C)CC(NC(=O)c2ccc(Oc3ccccc3C#N)c(Cl)c2)CC(C)(C)N1CCO [Compound I-459] ; retrieve measured pIC50.
> 5.30

Param item = COC(=O)c1ccc(COc2ccc(C(=O)NC3CC(C)(C)NC(C)(C)C3)cc2)cc1 [Compound I-117] ; retrieve measured pIC50.
< 4.10

Param item = CCc1cc(C(=O)NC2CC(C)(C)NC(C)(C)C2)ccc1Oc1ccccc1C#N [Compound I-265] ; retrieve measured pIC50.
> 5.30

Param item = CC1(C)CC(NC(=O)c2ccc(-c3ccccc3)cc2)CC(C)(C)N1 [Compound I-61] ; retrieve measured pIC50.
4.10 to 4.70

Param item = CC1(C)CC(NC(=O)c2ccc(Oc3cccc(-c4cccnc4)c3C#N)c(Br)c2)CC(C)(C)N1 [Compound I-364] ; retrieve measured pIC50.
> 5.30

Param item = CC1(C)CC(NC(=O)c2ccc(Oc3ccccc3)cc2F)CC(C)(C)N1 [Compound I-203] ; retrieve measured pIC50.
< 4.10

Param item = CC1(C)CC(NC(=O)c2ccc(Oc3cccc(C4=CCOCC4)c3C#N)c(Cl)c2)CC(C)(C)N1 [Compound I-529] ; retrieve measured pIC50.
> 5.30

Param item = CN1C(C)(C)CC(NC(=O)c2ccc(Oc3ccccc3C#N)c(Cl)c2)CC1(C)C [Compound I-289] ; retrieve measured pIC50.
> 5.30

Param item = Cc1cc(C(=O)NC2CC(C)(C)NC(C)(C)C2)ccc1Oc1cccc(-c2cn[nH]c2)c1C#N [Compound I-262] ; retrieve measured pIC50.
> 5.30

Param item = CC1(C)CC(NC(=O)c2ccc(Oc3ccccc3CO)cc2)CC(C)(C)N1 [Compound I-179] ; retrieve measured pIC50.
4.10 to 4.70

Param item = CC1(C)CC(NC(=O)c2ccc(COc3cccc(-c4cnc(N)nc4)c3)cc2)CC(C)(C)N1 [Compound I-3] ; retrieve measured pIC50.
> 5.30
